assay: Plasma PK after IV administration; settings: male, Ces1c−/− (JAX stock # 014096), mouse, plasma, iv, 54.4 μmole/kg
MEASURED PARAMETER: Vd (L)
Numeric answer only, unit L assumed.

>  <COMPOUND STRING>
CCC(CC)COC(=O)[C@H](C)N[P@](=O)(OC[C@H]1O[C@@](C#N)(c2ccc3c(N)ncnn23)[C@H](O)[C@@H]1O)Oc1ccccc1

>  <OUTPUT UNIT>
L

>  <Vd>
1.91

$$$$

Then there is this compound:
// query Vd value for entry "N#C[C@@]1(c2ccc3c(N)ncnn23)O[C@H](CO)[C@@H](O)[C@H]1O"
0.47
